The entries below come with measured binding signal values attached.
Target: SIX1-Q177R homeodomain (human, UniProt Q15475 108-198, Q177R)
Sequence: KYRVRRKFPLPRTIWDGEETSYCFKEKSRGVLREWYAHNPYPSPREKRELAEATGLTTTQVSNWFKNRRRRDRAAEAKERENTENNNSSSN
Test: universal protein binding microarray; Universal all-10-mer PBM (8x60K, AMADID 030236), 300 nM GST-tagged protein, Alexa Fluor 488 anti-GST; buffer, salt, pH and temperature not stated (as in Berger); high values mean tight binding
Conditions: protein: ivt; tags: N-terminal GST; dsDNA, one strand shown
In all, about 33,000 sequences were measured (“e-score”: median about -0.05, highest 2% from about 0.38 on). What follows is part of a selection rich in the highest values, with near analogues and random picks from the rest.

// below: answered sequences
MONOMER_SEQUENCE	MEASURED_ENDPOINT	ENDPOINT_VALUE
CCTACACC	binding signal	0.482 E-score
CGGGTCGC	binding signal	0.189 E-score
GAAGACAC	binding signal	0.38 E-score
ATACCGGA	binding signal	0.178 E-score
GAAGATAC	binding signal	0.16 E-score

// next item, binding signal requested
Field request: binding signal | item: GCGTAACA 0.199 E-score
